// reported pIC50 for each item listed
- ASSAY NAME: Antiplatelet aggregation activity against adenosine diphosphate-induced human platelet rich plasma assessed as inhibition of platelet aggregation by turbidimetric method
- Type: functional
- PROTOCOL CONDITIONS: Homo sapiens, Platelet, Plasma
pIC50: −log10 of the molar value.

{"columns": ["SMILES NOTATION", "OBSERVABLE", "VAL"],
 "data": [
  ["CCC(=O)N1CCN(C(=O)[C@H](CCC(=O)O)NC(=O)c2cccc(-c3ccccc3)n2)CC1", "pIC50", "< 4.00"],
  ["Cc1cccc(N2CCN(C(=O)[C@H](CCC(=O)O)NC(=O)c3cccc(-c4ccccc4)c3)CC2)c1", "pIC50", "< 4.00"]
]}

// switching to the query compound
Query :: What does the record list as pIC50 for CCCCOC(=O)N1CCN(C(=O)[C@H](CCC(=O)O)NC(=O)c2cc(N(C)CCOC)cc(-c3ccccc3)n2)CC1 ?
Result :: < 4.00

###

- TARGET OR TEST SYSTEM: P2Y purinoceptor 12 (Homo sapiens, UniProt Q9H244)
- Sequence (Q9H244 whole entry): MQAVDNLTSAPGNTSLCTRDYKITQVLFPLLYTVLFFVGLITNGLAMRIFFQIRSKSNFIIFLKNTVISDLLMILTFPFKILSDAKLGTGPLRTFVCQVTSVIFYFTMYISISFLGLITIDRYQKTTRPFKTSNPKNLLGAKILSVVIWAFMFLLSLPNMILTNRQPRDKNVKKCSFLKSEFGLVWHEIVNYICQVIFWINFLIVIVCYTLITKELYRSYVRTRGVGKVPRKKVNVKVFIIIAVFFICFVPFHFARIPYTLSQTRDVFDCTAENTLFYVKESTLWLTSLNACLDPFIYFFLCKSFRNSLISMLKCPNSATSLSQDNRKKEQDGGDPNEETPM
- ASSAY NAME: Displacement of [33P]ADP from human recombinant P2Y12 receptor expressed in CHO cells
OBSERVABLE: Ki (nM)
// note: answer is a bare numeric in nM

# annotated cases, reported Ki shown
{"columns": ["SMILES NOTATION", "TARGET OR TEST SYSTEM", "OBSERVABLE", "VAL"],
 "data": [
  ["CCCCCOC(=O)N1CCN(C(=O)[C@H](CCC(=O)O)NC(=O)c2cc(C(=O)NCCOC)cc(-c3ccccc3)n2)CC1", "P2Y purinoceptor 12 (Homo sapiens, UniProt Q9H244)", "Ki", 7.9],
  ["CCCCCOC(=O)N1CCN(C(=O)[C@H](CCC(=O)O)NC(=O)c2cc(CC3CCCCC3)cc(-c3ccccc3)n2)CC1", "P2Y purinoceptor 12 (Homo sapiens, UniProt Q9H244)", "Ki", 8.6]
]}

Query :: What does the record list as Ki for O=C(O)CC[C@H](NC(=O)c1cccc(-c2ccccc2)n1)C(=O)N1CCN(C(=O)OCCC2CC2)CC1 ?
Result :: 15

Source of measurements: ChEMBL document CHEMBL1157562
